test.summary: Novel Modifiers of Survival Motor Neuron (SMN) Protein: Gene Identification via Genome-wide siRNA Screen;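 further: luminescence tracks full-length SMN protein made from the SMN2 reporter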
condition: HEK293T SMN2-luciferase reporter, siRNA knockdown, 72 h; actives lie on both sides
About 1,400 (4.5%) of roughly 31,000 sequences were called active. Shown is part of a subset that was picked to be rich in actives.
quantity.name: median seed-adjusted z-score
// print number alone

Name the reported median seed-adjusted z-score value associated with the sequence CAUUAGAUCUGUGAUUAGATT against MCOLN3
-0.09

Can you share its median seed-adjusted z-score? I mean this sequence: CGCGCAACAUCGUCAAGUATT against LPHN1
-1.03

# get_value(readout='median seed-adjusted z-score', item= UCACUGAUGUACUACCUAUTT against RPUSD4 )
-0.0264

Name the recorded median seed-adjusted z-score for AGAUAUAUAAAUCAACGAATT against LSM3 .
-1.36

Need median seed-adjusted z-score, item GCAUGUUGGUUCACUAUGATT against TPST1
-0.00547

---

test.summary: Novel Modifiers of Survival Motor Neuron (SMN) Protein: Gene Identification via Genome-wide siRNA Screen;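 further: luminescence tracks full-length SMN protein made from the SMN2 reporter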
condition: HEK293T SMN2-luciferase reporter, siRNA knockdown, 72 h; actives lie on both sides
Protocol: Spinal muscular atrophy (SMA) is the most common neuromuscular autosomal recessive disorder and one of the leading genetic causes of infant death. […] Briefly, 1 pmol of each siRNA was spotted to a well of a 384-well plate (Corning, Corning, NY) and 20 microL of serum-free DMEM containing […] of Lipofectamine RNAiMax (Life Technologies, Carlsbad, CA) was then added to each well. […] Raw luminescence reads were normalized to Ambion(R) Silencer(R) Negative Control #2 siRNA, then log10 transformed. […]
Hit rate of the full screen: of about 31,000 sequences, about 1,400 (4.5%) were called active. Only a selection was taken, and actives are over-represented in it overall.
quantity.name: median seed-adjusted z-score
Answer with a bare number; do not write a unit.

| sequence.code | value.observed |
| --- | --- |
| CAGUAAGAAGGGUUCAAUATT against BTK | -0.0648 |
| AUCCUUCCCUGAAUCAUCATT against KLRC2 | -0.472 |
| CACCCAUGCUGACAGUGAATT against HLA-DMA | -0.00543 |

Now consider a different sequence.
// query median seed-adjusted z-score value for entry AGCGCAUGAUUGACAGUGATT against CACNG1
-0.452

---

test.summary: Novel Modifiers of Survival Motor Neuron (SMN) Protein: Gene Identification via Genome-wide siRNA Screen;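 further: luminescence tracks full-length SMN protein made from the SMN2 reporter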
condition: HEK293T SMN2-luciferase reporter, siRNA knockdown, 72 h; actives lie on both sides
Hit rate of the full screen: of about 31,000 sequences, about 1,400 (4.5%) were called active. Shown is part of a subset that was picked to be rich in actives.
sequences and their reported median seed-adjusted z-score
Number only, please.

The examples below pair each entry with its known result.
| sequence.code | median seed-adjusted z-score |
| --- | --- |
| CCGCUGAGGUGACAACAAATT against XRCC5 | -1.11 |
| CACGUGCAGAGUGUCGAUATT against EEF1D | 0.421 |
| GAACAAUGAGUAUAUCCUATT against PPP2R5B | 0.237 |
| GGGUGUAAUUCAUAAGGGUTT against PSMD1 | -1.61 |
| CCAACAAGGUAGACCCAUUTT against PSMC5 | -1.06 |

Tell me the measured median seed-adjusted z-score of CACCUGUUCUAUCACAGUATT against NOP2 , please.
1.15

Need median seed-adjusted z-score, item GACAAAAAGUCCAACCCUATT against CYB5R3
-0.901

Which value of median seed-adjusted z-score has been reported for GCGGAAAAGCUGUAUCUAUTT against POLR3E in the records?
-0.55

median seed-adjusted z-score lookup needed for GAUGAUAUUUAUUCACCAATT against ZBTB25 , thanks.
0

Which value of median seed-adjusted z-score has been reported for ACCGCACGAUGUUCAACUUTT against DNAJC30 in the records?
0.329

So what does the record say about median seed-adjusted z-score for GCCUAGAGGACUACAAGAATT against FZD8 ?
-0.177

Reported median seed-adjusted z-score, sequence CCUCAAGGAUUGGGACUAUTT against SLC22A17 : ____
-0.149
